target_of_assay: T1, dMpAgo (catalytically inactive MpAgo) (Marinitoga piezophila, UniProt H2J4R4 1-639, D446A)
T1 sequence: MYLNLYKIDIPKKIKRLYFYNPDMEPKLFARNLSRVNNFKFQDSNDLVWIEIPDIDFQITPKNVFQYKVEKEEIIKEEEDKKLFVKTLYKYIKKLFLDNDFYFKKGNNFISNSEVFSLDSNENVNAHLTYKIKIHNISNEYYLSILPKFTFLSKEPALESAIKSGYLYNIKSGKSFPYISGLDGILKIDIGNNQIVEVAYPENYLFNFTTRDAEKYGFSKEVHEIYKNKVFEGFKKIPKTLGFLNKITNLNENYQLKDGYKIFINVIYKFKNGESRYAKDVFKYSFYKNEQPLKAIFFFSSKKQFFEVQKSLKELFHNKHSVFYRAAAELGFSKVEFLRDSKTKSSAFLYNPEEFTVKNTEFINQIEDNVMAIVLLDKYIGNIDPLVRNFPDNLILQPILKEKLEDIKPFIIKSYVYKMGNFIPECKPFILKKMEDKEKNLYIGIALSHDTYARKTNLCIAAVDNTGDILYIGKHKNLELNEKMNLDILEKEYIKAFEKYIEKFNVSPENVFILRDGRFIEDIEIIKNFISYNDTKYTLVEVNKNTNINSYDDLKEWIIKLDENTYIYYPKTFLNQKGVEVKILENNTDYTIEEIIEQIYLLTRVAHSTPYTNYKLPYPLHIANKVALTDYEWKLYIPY
procedure_details: filter binding
test_readout: Kd

>  <binder>
BrdU guide / ON target (mixed, BrdU at guide 1) RNA 1: UAUACAACCUACUACCUCAUU RNA 2: GGACUAUGAUCUAGAUAUUAAUGAGGUAGUAGGUUGUAUCUCAGGAGGUC

>  <observed_measurement>
0.193 nM

$$$$
